These entries and their values trace back to ChEMBL document CHEMBL1140502.

system: Mus musculus; test: Inhibition of SERT-mediated serotonin-reuptake assessed as 5-hydroxytryptophan induced mouse head twitch at 12.94 mM/kg, ip after 20 mins; type: functional; parameters: scale not given: the % may be the effect or the level left
endpoint-name: Activity (%)

- molecule: "CN1C2CCC1CC(Oc1ccc(Cl)cc1)(c1ccccc1)C2 (stereo not given)"
  tested-on: "Mus musculus"
  numeric-result: 83.33
- molecule: "CN1C2CCC1CC(Oc1ccc(C(F)(F)F)cc1)(c1ccccc1)C2 (stereo not given)"
  tested-on: "Mus musculus"
  numeric-result: 83.33
- molecule: "CN1C2CCC1CC(Oc1cccc(C(F)(F)F)c1)(c1ccccc1)C2 (stereo not given)"
  tested-on: "Mus musculus"
  numeric-result: 83.33
- molecule: "CN1C2CCC1CC(Oc1ccc(Br)cc1)(c1ccccc1)C2 (stereo not given)"
  tested-on: "Mus musculus"
  numeric-result: 66.67
- molecule: "CNCCC(Oc1ccc(C(F)(F)F)cc1)c1ccccc1 (stereo not given) [FLUOXETINE]"
  tested-on: "Mus musculus"
  numeric-result: 100
